# target-or-test-system: cloned human μ-opioid receptor (Homo sapiens, UniProt P35372)
# Construct: expressed in transfected cells
# Sequence (P35372 whole entry): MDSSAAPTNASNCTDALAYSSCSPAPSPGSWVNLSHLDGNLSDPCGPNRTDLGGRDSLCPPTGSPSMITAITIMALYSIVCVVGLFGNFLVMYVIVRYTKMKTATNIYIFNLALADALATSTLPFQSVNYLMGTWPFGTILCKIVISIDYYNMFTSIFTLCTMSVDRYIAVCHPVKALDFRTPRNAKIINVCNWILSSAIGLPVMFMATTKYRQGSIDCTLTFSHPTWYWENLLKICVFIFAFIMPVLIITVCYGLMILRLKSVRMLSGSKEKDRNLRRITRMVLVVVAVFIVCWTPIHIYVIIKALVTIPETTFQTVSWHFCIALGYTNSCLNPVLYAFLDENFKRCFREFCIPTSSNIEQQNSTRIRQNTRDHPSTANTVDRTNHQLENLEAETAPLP
# experiment: Inhibition of DAMGO-stimulated [35S]GTPγS binding
# Assay type: biochemical
# condition-info: antagonism of DAMGO-stimulated [35S]GTPγS binding, cloned human μ receptor
reported-property: μ, DAMGO Ke
Lab note: write values as number then unit, every time.

Record excerpt, results attached:
Query: I have this compound here, Cc1ccc(Oc2ccc(C(=O)N[C@H](CN3CCN(c4cccc(O)c4)[C@@H](C)C3)C(C)C)cc2)cc1.Cl.Cl [Compound 6b] , and I need its recorded μ, DAMGO Ke.
Result: 20 ± 6 nM

Query: Now the same for COc1cccc(Oc2ccc(C(=O)N[C@H](CN3CCN(c4cccc(O)c4)[C@@H](C)C3)C(C)C)cc2)c1.Cl.Cl [Compound 6f]
Result: 33 ± 14 nM

Query: Now the same for CC(C)[C@@H](CN1CCN(c2cccc(O)c2)[C@@H](C)C1)NC(=O)c1ccc(Oc2ccccc2O)cc1.Cl.Cl [Compound 6h]
Result: 125 ± 10 nM

Query: Now the same for CC(C)[C@@H](CN1CCN(c2cccc(O)c2)[C@@H](C)C1)NC(=O)c1ccc(Oc2cccc(O)c2)cc1.Cl.Cl [Compound 6i]
Result: 69 ± 14 nM

Next up:
Query: I have this compound here, CC(C)[C@@H](CN1CCN(c2cccc(O)c2)[C@@H](C)C1)NC(=O)c1ccc(Oc2ccccc2)cc1.Cl.Cl [Compound 6a] , and I need its recorded μ, DAMGO Ke.
Result: 51 ± 14.9 nM

###

# target-or-test-system: cloned human δ-opioid receptor (Homo sapiens, UniProt P41143)
# Construct: expressed in transfected cells
# Sequence (P41143 whole entry): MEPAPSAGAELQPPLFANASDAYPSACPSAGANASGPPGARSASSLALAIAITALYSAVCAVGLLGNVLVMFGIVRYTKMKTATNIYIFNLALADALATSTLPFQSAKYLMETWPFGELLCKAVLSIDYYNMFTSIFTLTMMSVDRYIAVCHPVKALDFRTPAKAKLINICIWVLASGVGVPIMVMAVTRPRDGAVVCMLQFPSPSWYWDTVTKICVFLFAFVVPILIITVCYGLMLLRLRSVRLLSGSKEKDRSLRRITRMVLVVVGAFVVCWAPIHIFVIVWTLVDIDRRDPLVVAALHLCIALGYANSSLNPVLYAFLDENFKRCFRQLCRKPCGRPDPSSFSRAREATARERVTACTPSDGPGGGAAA
# experiment: Inhibition of DPDPE-stimulated [35S]GTPγS binding
# Assay type: biochemical
# condition-info: antagonism of DPDPE-stimulated [35S]GTPγS binding, cloned human δ receptor; read-out: δ, DPDPE Ke
Listing: Kb of selected molecules
Report the value in nM with no unit label.

Record excerpt, results attached:
Query: I have this molecule here, Cc1cc(C)cc(Oc2ccc(C(=O)N[C@H](CN3CCN(c4cccc(O)c4)[C@@H](C)C3)C(C)C)cc2)c1.Cl.Cl [Compound 19f, Dihydrochloride] , and I need its recorded Kb.
Result: 78

Query: Now the same for COc1cc(Oc2cccc(C)c2)ccc1C(=O)N[C@H](CN1CCN(c2cccc(O)c2)[C@@H](C)C1)C(C)C.Cl.Cl [Compound 19k, Dihydrochloride]
Result: 63

Next up:
Query: I have this molecule here, CC(C)[C@@H](CN1CCN(c2cccc(O)c2)[C@@H](C)C1)NC(=O)c1ccc(Oc2cccc(Cl)c2)cc1.Cl.Cl [Compound 19c, Dihydrochloride] , and I need its recorded Kb.
Result: 8.3

###

# target-or-test-system: cloned human κ-opioid receptor (Homo sapiens)
# Construct: expressed in transfected cells
# experiment: Inhibition of U69,593-stimulated [35S]GTPγS binding
# Type: biochemical
# condition-info: ratio of Ke values, selectivity for κ relative to μ
reported-property: μ/κ
Hey, just send me the number, nothing else.

Query: I have this compound here, "CC(C)[C@@H](CN1CCN(c2cccc(O)c2)[C@@H](C)C1)NC(=O)c1ccc(Oc2ccc(O)cc2)cc1.Cl.Cl" , and I need its recorded μ/κ.
Result: 8

###

# target-or-test-system: cloned human κ-opioid receptor (Homo sapiens, UniProt P41145)
# Construct: expressed in transfected cells
# Sequence (P41145 whole entry): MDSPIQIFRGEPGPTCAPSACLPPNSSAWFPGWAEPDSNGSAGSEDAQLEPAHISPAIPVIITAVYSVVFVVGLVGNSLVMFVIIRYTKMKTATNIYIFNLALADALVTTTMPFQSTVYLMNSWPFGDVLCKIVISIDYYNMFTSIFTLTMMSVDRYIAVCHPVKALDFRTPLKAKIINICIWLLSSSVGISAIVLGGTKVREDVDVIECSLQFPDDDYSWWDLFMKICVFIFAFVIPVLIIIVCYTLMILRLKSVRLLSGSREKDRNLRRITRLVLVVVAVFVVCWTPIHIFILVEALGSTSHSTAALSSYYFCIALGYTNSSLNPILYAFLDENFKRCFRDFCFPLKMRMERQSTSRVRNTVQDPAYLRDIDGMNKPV
# experiment: Inhibition of U69,593-stimulated [35S]GTPγS binding
# Type: biochemical
# condition-info: antagonism of U69,593-stimulated [35S]GTPγS binding, cloned human κ receptor; read-out: κ, U69,593 Ke
Structures can show the parent of a compound that is named as a salt.
reported-property: Kb (nM)
Report the value in nM with no unit label.

Record excerpt, results attached:
Query: I have this molecule here, Cc1cccc(Oc2ccc(C(=O)N[C@H](CN3CCN(c4cccc(O)c4)[C@@H](C)C3)C(C)C)cc2O)c1.Cl.Cl [Compound 19i, Dihydrochloride] , and I need its recorded Kb.
Result: 0.57

Query: Now the same for COc1cc(C(=O)N[C@H](CN2CCN(c3cccc(O)c3)[C@@H](C)C2)C(C)C)ccc1Oc1ccccc1O.Cl.Cl [Compound 19m, Dihydrochloride]
Result: 16.3

Next up:
Query: I have this molecule here, CC(C)[C@@H](CN1CCN(c2cccc(O)c2)[C@@H](C)C1)NC(=O)c1ccc(Oc2ccccc2)cn1 [Compound 7a, Trihydrochloride] , and I need its recorded Kb.
Result: 2.8

###

Listing: Kb of selected compounds
# target-or-test-system: cloned human δ-opioid receptor (Homo sapiens)
# Construct: expressed in transfected cells
# experiment: Inhibition of DPDPE-stimulated [35S]GTPγS binding
# Assay type: biochemical
# condition-info: antagonism of DPDPE-stimulated [35S]GTPγS binding, cloned human δ receptor; read-out: δ, DPDPE Ke
Structures can show the parent of a compound that is named as a salt.
Report the value in nM with no unit label.

Query: Lab request: please report Kb under test system cloned human δ-opioid receptor (Homo sapiens) for Cc1cccc(Oc2ccc(C(=O)N[C@H](CN3CCN(c4cccc(O)c4)[C@@H](C)C3)C(C)C)cc2)c1O.Cl.Cl [Compound 19e, Dihydrochloride]
Result: 92.7

Query: Now the same for CC(C)[C@@H](CN1CCN(c2cccc(O)c2)[C@@H](C)C1)NC(=O)c1ccc(Oc2ccccc2)cn1 [Compound 7a, Trihydrochloride]
Result: 2020

Query: Now the same for Cc1cccc(Oc2ccc(C(=O)N[C@H](CN3CCN(c4cccc(O)c4)[C@@H](C)C3)C(C)C)cc2Cl)c1.Cl.Cl [Compound 6l, Dihydrochloride]
Result: 1100

Query: Now the same for CC(C)[C@@H](CN1CCN(c2cccc(O)c2)[C@@H](C)C1)NC(=O)c1ccc(Oc2ccccc2F)cc1.Cl.Cl [Compound 19a, Dihydrochloride]
Result: 96

Query: Now the same for COc1cc(C(=O)N[C@H](CN2CCN(c3cccc(O)c3)[C@@H](C)C2)C(C)C)ccc1Oc1cccc(C)c1.Cl.Cl [Compound 19h, Dihydrochloride]
Result: 93

Query: Now the same for Cc1cccc(Oc2ccc(C(=O)N[C@H](CN3CCN(c4cccc(O)c4)[C@@H](C)C3)C(C)C)cc2C)c1.Cl.Cl [Compound 19g, Dihydrochloride]
Result: 21

###

# target-or-test-system: cloned human κ-opioid receptor (Homo sapiens)
# Construct: expressed in transfected cells
# experiment: Inhibition of U69,593-stimulated [35S]GTPγS binding
# Assay type: biochemical
# condition-info: antagonism of U69,593-stimulated [35S]GTPγS binding, cloned human κ receptor; read-out: κ, U69,593 Ke
reported-property: Kb (nM)
Report the value in nM with no unit label.

Query: I have this compound here, Cc1cc(C)cc(Oc2ccc(C(=O)N[C@H](CN3CCN(c4cccc(O)c4)[C@@H](C)C3)C(C)C)cc2)c1.Cl.Cl [Compound 19f, Dihydrochloride] , and I need its recorded Kb.
Result: 0.98

Next up:
Query: I have this compound here, Cc1cccc(Oc2ccc(C(=O)N[C@H](CN3CCN(c4cccc(O)c4)[C@@H](C)C3)C(C)C)cc2Cl)c1.Cl.Cl [Compound 6l, Dihydrochloride] , and I need its recorded Kb.
Result: 0.29

###

# target-or-test-system: cloned human κ-opioid receptor (Homo sapiens)
# Construct: expressed in transfected cells
# experiment: Inhibition of U69,593-stimulated [35S]GTPγS binding
# Assay type: biochemical
# condition-info: ratio of Ke values, selectivity for κ relative to δ
Structures can show the parent of a compound that is named as a salt.
Everything with δ/κ lower than 100 is Criterion not met; everything else, including exactly 100, is Criterion met.

Solved entries (count: 4):
Query: In plain terms: is recorded δ/κ at least 100 for "CC(C)[C@@H](CN1CCN(c2cccc(O)c2)[C@@H](C)C1)NC(=O)c1ccc(Oc2ccc(O)cc2)cc1.Cl.Cl" ?
Result: Criterion not met

Query: Now the same for CC(C)[C@@H](CN1CCN(c2cccc(O)c2)[C@@H](C)C1)NC(=O)c1ccc(Oc2ccccc2F)cc1.Cl.Cl [Compound 19a]
Result: Criterion met

Query: Now the same for CC(C)[C@@H](CN1CCN(c2cccc(O)c2)[C@@H](C)C1)NC(=O)c1ccc(Oc2cccc(Cl)c2)cc1.Cl.Cl [Compound 19c]
Result: Criterion not met

Query: Now the same for "CC(C)[C@@H](CN1CCN(c2cccc(O)c2)[C@@H](C)C1)NC(=O)c1ccc(Oc2cccc(F)c2)cc1.Cl.Cl"
Result: Criterion met

More entries:
Query: In plain terms: is recorded δ/κ at least 100 for CC(C)[C@@H](CN1CCN(c2cccc(O)c2)[C@@H](C)C1)NC(=O)c1ccc(Oc2ccccc2)cn1 [Compound 7a, Trihydrochloride] ?
Result: Criterion met

###

# target-or-test-system: cloned human δ-opioid receptor (Homo sapiens)
# Construct: expressed in transfected cells
# experiment: Inhibition of DPDPE-stimulated [35S]GTPγS binding
# Type: biochemical
reported-property: Kb (nM)
Report the value in nM with no unit label.

Query: I have this molecule here, CC(C)[C@@H](CN1CCN(c2cccc(O)c2)[C@@H](C)C1)NC(=O)c1ccc(Oc2ccccc2)nc1.Cl.Cl.Cl [Compound 7b, Trihydrochloride] , and I need its recorded Kb.
Result: 1790

More entries:
Query: I have this molecule here, Cc1cccc(Oc2ccc(C(=O)N[C@H](CN3CCN(c4cccc(O)c4)[C@@H](C)C3)C(C)C)c(C)c2)c1.Cl.Cl [Compound 19j, Dihydrochloride] , and I need its recorded Kb.
Result: 18

Query: Now the same for CC(C)[C@@H](CN1CCN(c2cccc(O)c2)[C@@H](C)C1)NC(=O)c1ccc(Oc2cccc(C(F)(F)F)c2)cc1 [Compound 19b]
Result: 54
